molecular target: UniProtKB P00533
Sequence (P00533 whole entry, looked up): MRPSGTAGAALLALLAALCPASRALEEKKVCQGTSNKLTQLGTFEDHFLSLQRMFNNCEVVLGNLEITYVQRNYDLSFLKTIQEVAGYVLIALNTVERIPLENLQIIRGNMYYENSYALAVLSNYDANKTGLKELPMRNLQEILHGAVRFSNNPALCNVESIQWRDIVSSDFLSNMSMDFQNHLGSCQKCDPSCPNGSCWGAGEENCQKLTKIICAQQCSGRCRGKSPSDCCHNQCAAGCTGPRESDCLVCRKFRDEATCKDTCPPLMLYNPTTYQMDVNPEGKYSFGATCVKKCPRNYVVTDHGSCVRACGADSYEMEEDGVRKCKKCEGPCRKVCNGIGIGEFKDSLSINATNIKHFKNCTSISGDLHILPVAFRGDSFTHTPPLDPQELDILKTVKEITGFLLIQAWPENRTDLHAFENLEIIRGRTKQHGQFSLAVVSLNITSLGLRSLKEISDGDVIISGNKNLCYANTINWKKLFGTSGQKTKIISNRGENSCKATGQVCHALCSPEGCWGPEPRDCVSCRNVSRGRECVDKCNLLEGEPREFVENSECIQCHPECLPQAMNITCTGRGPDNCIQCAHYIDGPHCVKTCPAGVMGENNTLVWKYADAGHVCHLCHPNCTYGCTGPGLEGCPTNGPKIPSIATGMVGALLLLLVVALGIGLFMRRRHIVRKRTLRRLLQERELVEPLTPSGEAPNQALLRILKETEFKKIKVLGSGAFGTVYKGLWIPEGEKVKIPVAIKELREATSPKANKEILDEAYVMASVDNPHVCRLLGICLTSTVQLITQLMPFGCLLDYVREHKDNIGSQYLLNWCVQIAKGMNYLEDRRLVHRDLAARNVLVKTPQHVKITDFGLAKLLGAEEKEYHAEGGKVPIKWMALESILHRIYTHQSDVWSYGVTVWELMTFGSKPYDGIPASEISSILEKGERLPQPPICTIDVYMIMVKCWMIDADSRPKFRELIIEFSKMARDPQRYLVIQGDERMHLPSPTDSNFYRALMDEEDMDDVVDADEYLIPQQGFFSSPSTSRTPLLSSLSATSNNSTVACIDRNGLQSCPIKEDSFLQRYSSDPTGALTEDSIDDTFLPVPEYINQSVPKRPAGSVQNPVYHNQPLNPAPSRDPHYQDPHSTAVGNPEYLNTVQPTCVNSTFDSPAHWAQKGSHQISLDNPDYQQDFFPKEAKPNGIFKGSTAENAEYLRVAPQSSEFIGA
Answer each item with its documented inhibition.

In: Which inhibition value is on record for NCCC(=O)NCCc1cc(O)c(O)c(SC[C@H](NC(=O)CC[C@H](N)C(=O)O)C(=O)NCC(=O)O)c1 ?
Out: 4.9

Record inhibition for all entries; do not skip any.
1. NCCC(=O)NCCc1cc(O)c(O)c(SC[C@H](N)C(=O)N[C@@H](CCC(=O)O)C(=O)O)c1
2. N[C@@H](Cc1cc(O)c(O)c(SC[C@H](N)C(=O)N[C@@H](CCC(=O)O)C(=O)O)c1)C(=O)O

Out:
[52.1, 0]

Hello, I would appreciate it if you could give inhibition for each entry below.
1. NCCc1cc(O)c(O)c(SC[C@H](N)C(=O)NCC(=O)O)c1
2. NCCc1cc(O)c(O)c(SC[C@H](N)C(=O)O)c1
3. NCCC(=O)NCCc1cc(O)c(O)c(SC[C@H](N)C(=O)NCC(=O)O)c1
4. NCCC(=O)N[C@@H](Cc1cc(O)c(O)c(SC[C@H](NC(=O)CC[C@H](N)C(=O)O)C(=O)NCC(=O)O)c1)C(=O)O
5. NCCC(=O)N[C@@H](Cc1cc(O)c(O)c(SC[C@H](N)C(=O)N[C@@H](CCC(=O)O)C(=O)O)c1)C(=O)O

Out:
1. 19.6
2. 16.3
3. 7.9
4. 2.2
5. 0

Record inhibition per entry; entries follow.
1. NCCc1cc(O)c(O)c(Sc2nc3ccccc3[nH]2)c1
2. NCCC(=O)N[C@@H](Cc1cc(O)c(O)c(SC[C@H](N)C(=O)NCC(=O)O)c1)C(=O)O
3. NCCc1cc(O)c(O)c(Sc2nc[nH]n2)c1
4. N[C@@H](CSc1cc(C[C@H](N)C(=O)O)cc(O)c1O)C(=O)O
5. N[C@@H](Cc1cc(O)c(O)c(Sc2nc3ccccc3[nH]2)c1)C(=O)O
6. N[C@@H](Cc1cc(O)c(O)c(Sc2nc[nH]n2)c1)C(=O)O
7. NCCc1cc(O)c(O)c(SC[C@H](N)C(=O)N[C@@H](CCC(=O)O)C(=O)O)c1

Out:
1: 15.1; 2: 0; 3: 15.9; 4: 2.9; 5: 11.7; 6: 17; 7: 9.3

Please state inhibition for every compound in the list that follows.
1. N[C@@H](Cc1cc(O)c(O)c(SC[C@H](N)C(=O)NCC(=O)O)c1)C(=O)O
2. NCCC(=O)NCCc1cc(O)c(O)c(SC[C@H](N)C(=O)O)c1

Out:
1. 2.5
2. 12.1
